Entry source: BigSolDB 2.1

# settings: in isopentanol, 313.15 K
measuredParameter: solubility (mole fraction)
Kindly provide the number alone.

Item c1ccc(-n2c3ccccc3c3ccccc32)cc1 has what recorded solubility (mole fraction)?
0.0201

* * *

# settings: in n-butyl acetate, 308.15 K
measuredParameter: solubility (mole fraction)
Kindly provide the number alone.

Item c1ccc(-n2c3ccccc3c3ccccc32)cc1 has what recorded solubility (mole fraction)?
0.225

* * *

# settings: in isopentanol, 298.15 K
measuredParameter: solubility (mole fraction)
Kindly provide the number alone.

Item c1ccc(-n2c3ccccc3c3ccccc32)cc1 has what recorded solubility (mole fraction)?
0.0101

* * *

# settings: in sec-butanol, 323.15 K
measuredParameter: solubility (mole fraction)

Item c1ccc(-n2c3ccccc3c3ccccc32)cc1 has what recorded solubility (mole fraction)?
0.0278

* * *

# settings: in ethyl acetate, 283.15 K
measuredParameter: solubility (mole fraction)
Kindly provide the number alone.

Item c1ccc(-n2c3ccccc3c3ccccc32)cc1 has what recorded solubility (mole fraction)?
0.0902

* * *

# settings: in methyl acetate, 283.15 K
measuredParameter: solubility (mole fraction)
Kindly provide the number alone.

Item c1ccc(-n2c3ccccc3c3ccccc32)cc1 has what recorded solubility (mole fraction)?
0.0727

* * *

# settings: in isobutanol, 313.15 K
measuredParameter: solubility (mole fraction)
Kindly provide the number alone.

Item c1ccc(-n2c3ccccc3c3ccccc32)cc1 has what recorded solubility (mole fraction)?
0.00922

* * *

# settings: in dimethyl carbonate, 303.15 K
measuredParameter: solubility (mole fraction)
Kindly provide the number alone.

Item c1ccc(-n2c3ccccc3c3ccccc32)cc1 has what recorded solubility (mole fraction)?
0.113

* * *

# settings: in isobutyl acetate, 318.15 K
measuredParameter: solubility (mole fraction)
Kindly provide the number alone.

Item c1ccc(-n2c3ccccc3c3ccccc32)cc1 has what recorded solubility (mole fraction)?
0.32

* * *

# settings: in sec-butanol, 318.15 K
measuredParameter: solubility (mole fraction)
Kindly provide the number alone.

Item c1ccc(-n2c3ccccc3c3ccccc32)cc1 has what recorded solubility (mole fraction)?
0.0202

* * *

# settings: in sec-butanol, 293.15 K
measuredParameter: solubility (mole fraction)
Kindly provide the number alone.

Item c1ccc(-n2c3ccccc3c3ccccc32)cc1 has what recorded solubility (mole fraction)?
0.00607

* * *

# settings: in ethyl lactate, 323.15 K
measuredParameter: solubility (mole fraction)
Kindly provide the number alone.

Item c1ccc(-n2c3ccccc3c3ccccc32)cc1 has what recorded solubility (mole fraction)?
0.139

* * *

# settings: in ethyl lactate, 283.15 K
measuredParameter: solubility (mole fraction)
Kindly provide the number alone.

Item c1ccc(-n2c3ccccc3c3ccccc32)cc1 has what recorded solubility (mole fraction)?
0.0336

* * *

# settings: in n-propyl acetate, 303.15 K
measuredParameter: solubility (mole fraction)
Kindly provide the number alone.

Item c1ccc(-n2c3ccccc3c3ccccc32)cc1 has what recorded solubility (mole fraction)?
0.139

* * *

# settings: in isobutyl acetate, 283.15 K
measuredParameter: solubility (mole fraction)
Kindly provide the number alone.

Item c1ccc(-n2c3ccccc3c3ccccc32)cc1 has what recorded solubility (mole fraction)?
0.114

* * *

# settings: in dimethyl carbonate, 288.15 K
measuredParameter: solubility (mole fraction)
Kindly provide the number alone.

Item c1ccc(-n2c3ccccc3c3ccccc32)cc1 has what recorded solubility (mole fraction)?
0.0631

* * *

# settings: in isopropyl acetate, 283.15 K
measuredParameter: solubility (mole fraction)
Kindly provide the number alone.

Item c1ccc(-n2c3ccccc3c3ccccc32)cc1 has what recorded solubility (mole fraction)?
0.0729

* * *

# settings: in isobutyl acetate, 308.15 K
measuredParameter: solubility (mole fraction)
Kindly provide the number alone.

Item c1ccc(-n2c3ccccc3c3ccccc32)cc1 has what recorded solubility (mole fraction)?
0.235
